# TEST_TARGET: σ1 receptor (Cavia porcellus, UniProt Q60492)
# Construct: thawed membrane preparation of guinea pig brain; tissue Harlan-Winkelmann, Borchen, Germany (animal organs); host or cells: guinea pig brain membrane homogenate
# Sequence (Q60492 whole entry): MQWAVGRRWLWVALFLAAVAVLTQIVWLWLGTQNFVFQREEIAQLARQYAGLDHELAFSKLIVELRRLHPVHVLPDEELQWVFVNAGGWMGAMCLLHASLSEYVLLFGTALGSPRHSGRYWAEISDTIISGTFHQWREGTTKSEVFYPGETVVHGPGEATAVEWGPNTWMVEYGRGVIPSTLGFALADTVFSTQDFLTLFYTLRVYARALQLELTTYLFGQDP
# MEASUREMENT_DESCRIPTION: σ1 receptor binding assay, radioligand [3H]-(+)-pentazocine, guinea pig brain membrane preparation
# CONDITION_LABEL: test compound concentration of 1 µM
The following molecules are shown together with reported inhibition at 1 µM values.
Field format: number, assumed %, no unit text.

Some solved entries appear below for comparison.
MOLECULE	TEST_TARGET	inhibition at 1 µM, %
COc1ccc(C)cc1NC(=O)OC1CC23CCCCC2(CC(NCc2cc(C(F)(F)F)cc(C(F)(F)F)c2)C3)C1 (stereo not drawn) [8-anti-4f]	σ1 receptor (Cavia porcellus, UniProt Q60492)	0
COc1ccc(C)cc1NC(=O)OC1CC23CCCCC2(CC(NCCO)C3)C1 (stereo not drawn) [8-anti-4s]	σ1 receptor (Cavia porcellus, UniProt Q60492)	12
NC1CC23CCCCC2(CCC3)C1 (stereo not drawn)	σ1 receptor (Cavia porcellus, UniProt Q60492)	5
COc1ccc(C)cc1NC(=O)OC1CC23CCCCC2(CC(NCC(C)C)C3)C1 (stereo not drawn) [8-anti-4u]	σ1 receptor (Cavia porcellus, UniProt Q60492)	5

Form: Entry = COc1ccc(C)cc1NC(=O)OC1CC23CCCCC2(CC(NCCCc2ccccc2)C3)C1 (stereo not drawn) [8-anti-4q] | System = σ1 receptor (Cavia porcellus, UniProt Q60492) | inhibition at 1 µM = ____
22

Same question for COc1ccc(C)cc1NC(=O)OC1CC23CCCCC2(CC(Nc2ccccc2)C3)C1 (stereo not drawn) [8-anti-4l] please.
13

Now give it for COc1ccc(C)cc1NC(=O)OC1CC23CCCCC2(CC(NCc2ccc([N+](=O)[O-])cc2)C3)C1 (stereo not drawn) [8-anti-4g] too.
24

Then what about the molecule OC1CC23CCCCC2(C1)CC(NCc1ccccc1)C3 (mixture of isomers) [11-anti-13] ?
29

Same question for O=C(Nc1ccc(F)c(F)c1)NC1CC23CCCCC2(CCC3)C1 (stereo not drawn) [23d] please.
0

---

# TEST_TARGET: σ2 receptor (Rattus norvegicus)
# Construct: The thawed rat liver membrane preparation; tissue Harlan-Winkelmann, Borchen, Germany (animal organs); host or cells: rat liver membrane homogenate
# Sequence (Q5U3Y7 1-176): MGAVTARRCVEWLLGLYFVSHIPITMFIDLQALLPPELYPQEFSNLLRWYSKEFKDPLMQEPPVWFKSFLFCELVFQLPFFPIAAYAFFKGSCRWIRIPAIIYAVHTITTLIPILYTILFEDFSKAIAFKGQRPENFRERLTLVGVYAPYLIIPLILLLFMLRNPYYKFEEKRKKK
# MEASUREMENT_DESCRIPTION: σ2 receptor binding assay, radioligand [3H]di-o-tolylguanidine, rat liver membrane preparation
# CONDITION_LABEL: test compound concentration of 1 µM
MEASURED_QUANTITY: inhibition at 1 µM (%)
// note: answer is a bare numeric in %

So what does the record say about inhibition at 1 µM for CN(C)c1ccc(CNC2CC34CCCCC3(CCC4)C2)cc1 (stereo not drawn) [compound 17] ?
1

O=C(Nc1ccc(F)c(F)c1)NC1CC23CCCCC2(CCC3)C1 (stereo not drawn) [23d] , same question.
0

And what about the molecule COc1ccc(C)cc1NC(=O)OC1CC23CCCCC2(CC(Nc2ccccc2)C3)C1 (stereo not drawn) [8-anti-4l] ?
0

Thanks! And COc1ccc(NC2CC34CCCCC3(C2)CC(OC(=O)Nc2cc(C)ccc2OC)C4)cc1Cl (stereo not drawn) [8-anti-4n] ?
0

Same question for O=C(Nc1ccc(F)c(F)c1)NC1CC23CCCCC2(CC(O)C3)C1 (stereo not drawn) [anti,anti-26] please.
0

Same again, this time with COc1ccc(C)cc1NC(=O)OC1CC23CCCCC2(CC(NCCc2ccccc2)C3)C1 (stereo not drawn) [8-anti-4p]
0

Same lookup for NC1CC23CCCCC2(CCC3)C1 (stereo not drawn) [compound 16] , please.
13

Check O=C(Nc1ccc(F)c(F)c1)NC1CC23CCCCC2(CC(O)C3)C1 (mixture of isomers) [8-syn-26] too.
0

Now the same for COc1ccc(C)cc1NC(=O)N(Cc1ccccc1)C1CC23CCCCC2(CC(=O)C3)C1 (stereo not drawn) [syn-21]
14
